The measured values listed here are drawn from ChEMBL document CHEMBL1687896.

- System: Drosophila melanogaster
- test summary: Inhibition of Drosophila melanogaster LM408 at 5 mM by spectrophotometry
measured endpoint: inhibition

Example cases with answers are listed next.
{"compound": "O=S(=O)(Cc1ccccc1)[C@H]1O[C@H](CO)[C@@H](O)[C@H](O)[C@@H]1O", "reported measurement": "< 10%"}
{"compound": "OC[C@H]1O[C@H](SCCc2ccccc2)[C@@H](O)[C@@H](O)[C@@H]1O", "reported measurement": "< 10%"}
{"compound": "OC[C@H]1O[C@H](OCC2CCCCC2)[C@@H](O)[C@@H](O)[C@@H]1O", "reported measurement": "< 10%"}
{"compound": "[O-][S+](Cc1ccccc1)[C@H]1O[C@H](CO)[C@@H](O)[C@H](O)[C@@H]1O (stereo not given in full)", "reported measurement": "< 10%"}
{"compound": "OC[C@H]1OC(O)[C@@H](O)[C@@H](O)[C@@H]1O (stereo not given in full)", "reported measurement": "< 10%"}
{"compound": "OC[C@H]1O[C@H](SCc2ccccc2)[C@@H](O)[C@@H](O)[C@@H]1O", "reported measurement": "< 10%"}
{"compound": "CCCCCCCCCCCCO[C@H]1O[C@H](CO)[C@@H](O)[C@H](O)[C@@H]1O", "reported measurement": "< 10%"}
{"compound": "CCCCCCCCO[C@H]1O[C@H](CO)[C@@H](O)[C@H](O)[C@@H]1O", "reported measurement": "< 10%"}

q: Any idea what inhibition was measured for "CCCCCCS[C@H]1O[C@H](CO)[C@@H](O)[C@H](O)[C@@H]1O" ?
a: < 10%

q: Lookup "OC[C@H]1O[C@H](OCCC2CCCCC2)[C@@H](O)[C@@H](O)[C@@H]1O"
a: < 10%
